# TARGET UNDER TEST: GSK3b (GST-full length GSK3b) (Homo sapiens (Human))
# ASSAY PROTOCOL: GSK3b TR-FRET kinase assay
# Assay type: biochemical
# COND: 1 nM GSK3b, 2 μM ATP, 30 minute preincubation; geometric mean; read-out: GSK3-B TR-FRET BIOCHEMICAL (TR-FRET); GMean; IC50
REPORTED METRIC: IC50

| COMPOUND | TEST RESULT |
| --- | --- |
| CCC1(c2cccc(-c3ccnc(C)c3F)c2)C2=C(CC(C)(C)NC2=O)Nc2n[nH]c(C(F)(F)F)c21 (stereo not shown) | ≤ 100 nM |
| CC[C@@]1(c2cccc(-c3ccnc4c(F)cccc34)c2)C2=C(CC(C)(C)NC2=O)Nc2n[nH]cc21 | > 5000 nM |
| CC[C@@]1(c2cccc(C(F)F)c2)C2=C(CC(C)(C)NC2=O)Nc2n[nH]cc21 | > 5000 nM |
| CCC1(c2cccc(N(C)c3ncccn3)c2)C2=C(CC(C)(C)NC2=O)Nc2n[nH]c(C(F)(F)F)c21 (stereo not shown) | ≤ 100 nM |

---

// reported pIC50 for each item listed
# TARGET UNDER TEST: GSK3b (GST-full length GSK3b) (Homo sapiens (Human), UniProt P49841)
# Sequence (P49841 whole entry): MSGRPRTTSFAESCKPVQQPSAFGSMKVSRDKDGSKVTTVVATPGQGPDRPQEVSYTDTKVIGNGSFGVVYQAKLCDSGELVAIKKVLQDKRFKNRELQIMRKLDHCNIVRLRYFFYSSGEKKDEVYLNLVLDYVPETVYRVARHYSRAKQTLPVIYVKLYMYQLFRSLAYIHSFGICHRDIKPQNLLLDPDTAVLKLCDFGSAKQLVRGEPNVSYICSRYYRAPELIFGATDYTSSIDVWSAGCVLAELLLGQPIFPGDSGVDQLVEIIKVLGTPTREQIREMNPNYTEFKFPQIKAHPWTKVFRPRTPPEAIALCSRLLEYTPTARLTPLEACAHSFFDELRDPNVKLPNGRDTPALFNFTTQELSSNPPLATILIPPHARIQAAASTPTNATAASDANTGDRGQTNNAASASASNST
# ASSAY PROTOCOL: GSK3b TR-FRET kinase assay
# Assay type: biochemical
# COND: read-out: GSK3-B (TR-FRET 1 mM ATP); GMean; IC50; 1 mM ATP; geometric mean
pIC50: −log10 of the molar value.

| SMILES REPRESENTATION | pIC50 |
| --- | --- |
| CC[C@@]1(c2cccc(-c3ccncc3C(F)(F)F)c2)C2=C(CC(C)(C)C2=O)Nc2n[nH]cc21 | 5.30 to 6.00 |
| CC[C@]1(c2cccc(-c3c(C)cnn3C)c2)C2=C(CC(C)(C)NC2=O)Nc2n[nH]cc21 | < 5.30 |
| CC(C)(C)Cc1[nH]nc2c1C1(CN(S(=O)(=O)CC3CC3)C1)C1=C(CC3(CCC3)CC1=O)N2 | 6.00 to 7.00 |
| CC[C@]1(c2cccc(-c3ccncc3F)c2)C2=C(CC(C)(C)NC2=O)Nc2n[nH]c(C(F)F)c21 | 5.30 to 6.00 |

---

# TARGET UNDER TEST: GSK3α (GST-full length GSK3α) (Homo sapiens (Human))
# Sequence (P49840 whole entry): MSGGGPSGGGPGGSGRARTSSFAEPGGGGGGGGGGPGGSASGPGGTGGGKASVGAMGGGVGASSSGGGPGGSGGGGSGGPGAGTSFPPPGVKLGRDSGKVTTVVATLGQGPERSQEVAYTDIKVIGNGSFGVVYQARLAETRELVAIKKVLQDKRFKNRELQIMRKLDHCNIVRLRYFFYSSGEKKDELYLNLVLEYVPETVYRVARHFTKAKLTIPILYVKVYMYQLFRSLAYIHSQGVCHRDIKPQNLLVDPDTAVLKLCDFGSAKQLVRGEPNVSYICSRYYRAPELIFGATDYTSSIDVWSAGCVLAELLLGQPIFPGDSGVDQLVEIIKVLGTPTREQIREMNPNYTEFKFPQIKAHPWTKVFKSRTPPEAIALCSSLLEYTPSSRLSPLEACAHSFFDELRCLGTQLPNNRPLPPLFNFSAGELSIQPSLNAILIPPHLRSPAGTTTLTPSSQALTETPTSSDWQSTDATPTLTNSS
# ASSAY PROTOCOL: GSK3α TR-FRET kinase assay
# Assay type: biochemical
# COND: 1 nM GSK3α, 4 μM ATP, 30 minute preincubation; read-out: GSK3-A TR-FRET BIOCHEMICAL (TR-FRET); IC50
pIC50: −log10 of the molar value.
// reported pIC50 for each item listed
REPORTED METRIC: pIC50

| MOLECULE | TEST RESULT |
| --- | --- |
| CC1(C)CC(=O)C2=C(C1)Nc1n[nH]cc1[C@]21CCN(S(=O)(=O)CC2CC2)C1 [Compound 951723] | ≥ 7.00 |
| CC[C@]1(c2cccc(C(F)(F)F)c2)C2=C(Nc3n[nH]cc31)[C@H](C)CNC2=O [Compound 945385] | < 5.30 |
| CC[C@@]1(c2cccc(C(F)(F)F)c2)C2=C(Nc3n[nH]cc31)[C@@H](C)N(Cc1ccccc1)C2=O [Compound 930330] | ≥ 7.00 |
| CC1(C)CC(=O)C2=C(C1)Nc1n[nH]cc1C21CCC2(CCC(=O)N2)CC1 (stereo not drawn) [Compound 913056] | 6.00 to 7.00 |
| CC1(C)CC(=O)C2=C(C1)Nc1n[nH]cc1C21COC2(CN(C(=O)C3CCCC3)C2)C1 (stereo not drawn) [Compound 943958] | 6.00 to 7.00 |
| CC[C@]1(c2cccc(C(F)(F)F)c2)C2=C(Nc3n[nH]cc31)[C@@H](C)NC2=O [Compound 945380] | < 5.30 |
| CC1(C)CC(=O)C2=C(C1)Nc1n[nH]cc1C21COC2(CN(C(=O)C3(F)CC3)C2)C1 (stereo not drawn) [Compound 947487] | ≥ 7.00 |
| CC1(C)CC(=O)C2=C(C1)Nc1n[nH]cc1C21CCN(S(=O)(=O)Cc2ccccc2)CC1 [Compound 929437] | ≥ 7.00 |
| CCC1(c2cccc(C(F)(F)F)c2)C2=C(CC(C)(C)N(C)C2=O)Nc2n[nH]cc21 (stereo not drawn) [Compound 826791] | 6.00 to 7.00 |
| CC1(C)CC(=O)C2=C(C1)Nc1n[nH]cc1C21COC2(CN(C(=O)C(F)F)C2)C1 (stereo not drawn) [Compound 947485] | ≥ 7.00 |
| Cn1ccc(S(=O)(=O)N2CC[C@]3(C2)C2=C(CC(C)(C)CC2=O)Nc2n[nH]cc23)n1 [Compound 945712] | ≥ 7.00 |
| CC1(C)CC(=O)C2=C(C1)Nc1n[nH]cc1C21COC2(CN(C(=O)CC3CCC3)C2)C1 (stereo not drawn) [Compound 947299] | ≥ 7.00 |
| Cc1cc(C)cc(C(=O)N2CC3(C2)C[C@]2(CO3)C3=C(CC(C)(C)CC3=O)Nc3n[nH]cc32)c1 [Compound 948223] | ≥ 7.00 |
| CC1(C)CC(=O)C2=C(C1)Nc1n[nH]cc1C21COC2(CN(C(=O)C(F)(F)F)C2)C1 (stereo not drawn) [Compound 947280] | ≥ 7.00 |
| CC1(C)CC(=O)C2=C(C1)Nc1n[nH]cc1C21COC2(CN(C(=O)Cc3ccccc3)C2)C1 (stereo not drawn) [Compound 947306] | ≥ 7.00 |

Values were extracted from patent US20250313563A1.
